Tested on: Staphylococcus aureus
Assay: Minimum inhibitory concentration (MIC) against Staphylococcus aureus ATCC 25293
Type: functional
Conditions: Staphylococcus aureus, ATCC 25293; read-out: MIC
MEASUREMENT_TYPE: MIC (µg/mL)

a = CN(CC(=O)O)NC(=O)CC(N)C1CCC(N)CC1 (stereo not given)
b = CN(CC(=O)O)NC(=O)C[C@H](N)CCCN
## Task // compare measured MIC between a and b ; output the lower one State the label of the item chosen.
## Result b
(b: 64 µg/mL, a: 128 µg/mL)

---

Tested on: Escherichia coli
Assay: Minimum inhibitory concentration (MIC) against Escherichia coli MG1655 tolC
Assay type: functional
Settings: Escherichia coli, MG1655; read-out: MIC
MEASUREMENT_TYPE: MIC (µg/mL)

# example entries with known answers
{"MOLECULE": "CN(CC(=O)O)NC(=O)CC(N)C1CCCC(N)C1 (stereo unspecified)", "TARGET_ENTITY": "Escherichia coli", "MEASUREMENT_TYPE": "MIC", "UNITS_OF_MEASURE": "µg/mL", "TEST_RESULT": 64}
{"MOLECULE": "CN(CC(=O)O)NC(=O)C[C@H](N)CCCN", "TARGET_ENTITY": "Escherichia coli", "MEASUREMENT_TYPE": "MIC", "UNITS_OF_MEASURE": "µg/mL", "TEST_RESULT": 4}
{"MOLECULE": "CN(CC(=O)O)NC(=O)C[C@H](N)C1CC1N (stereo in doubt; 35e2)", "TARGET_ENTITY": "Escherichia coli", "MEASUREMENT_TYPE": "MIC", "UNITS_OF_MEASURE": "µg/mL", "TEST_RESULT": 128}

a = CN(CC(=O)O)NC(=O)CC(N)C1CCC(N)CC1 (stereo unspecified)
b = CN(CC(=O)O)NC(=O)CC(N)[C@H]1CC[C@@H](N)C1 (stereo partly specified)
## Task // compare measured MIC between a and b ; output the lower one State the label of the item chosen.
## Result a
(a: 32 µg/mL, b: 64 µg/mL)

---

Tested on: Enterobacter cloacae
Assay: Minimum inhibitory concentration (MIC) against Enterobacter cloacae ATCC 35030
Type: functional
Conditions: Enterobacter cloacae, ATCC 35030; read-out: MIC
MEASUREMENT_TYPE: MIC

{"MOLECULE": "CN(CC(=O)O)NC(=O)CC(N)C1CCCC(N)C1 (stereo unspecified)", "MIC": "256 µg/mL"}
{"MOLECULE": "CN(CC(=O)O)NC(=O)C[C@H](N)/C=C(/F)CN", "MIC": "> 256 µg/mL"}
{"MOLECULE": "CN(CC(=O)O)NC(=O)C[C@H](N)/C=C/CN", "MIC": "> 256 µg/mL"}
{"MOLECULE": "CN(CC(=O)O)NC(=O)C[C@H](N)C1CCCNC1 (stereo partly specified)", "MIC": "> 128 µg/mL"}
{"MOLECULE": "CN(CC(=O)O)NC(=O)C[C@H](N)C1CC1N (stereo in doubt; 35e2)", "MIC": "128 µg/mL"}

## Task What value of MIC has been reported for the following molecule? `CN(CC(=O)O)NC(=O)C[C@H](N)/C=C(\F)CN`
## Result > 256 µg/mL

---

Tested on: Staphylococcus aureus
Assay: Minimum inhibitory concentration (MIC) against Staphylococcus aureus ATCC 25293
Assay type: functional
Conditions: Staphylococcus aureus, ATCC 25293; read-out: MIC
MEASUREMENT_TYPE: MIC (µg/mL)

{"MOLECULE": "CN(CC(=O)O)NC(=O)C[C@H](N)CC1CC1N (stereo partly specified)", "MEASUREMENT_TYPE": "MIC", "UNITS_OF_MEASURE": "µg/mL", "TEST_RESULT": 256}

A = CN(CC(=O)O)NC(=O)C[C@H](N)C1CC1N (stereo in doubt; 35e2)
B = CN(CC(=O)O)NC(=O)CC(N)C1CCCC(N)C1 (stereo unspecified)
## Task Please state the entry with greater MIC among A and B . State the label of the item chosen.
## Result B

---

Test system: Escherichia coli
Assay: Minimum inhibitory concentration (MIC) against Escherichia coli ATCC 25922
Format: functional
Settings: Escherichia coli, ATCC 25922; read-out: MIC
MEASUREMENT_TYPE: MIC (µg/mL)

# example entries with known answers
{"MOLECULE": "CN(CC(=O)O)NC(=O)CC(N)C1CCC(N)CC1 (stereo unspecified)", "TARGET_ENTITY": "Escherichia coli", "MIC (µg/mL)": 128}
{"MOLECULE": "CN(CC(=O)O)NC(=O)C[C@H](N)C1CC1N (stereo in doubt; 35e2)", "TARGET_ENTITY": "Escherichia coli", "MIC (µg/mL)": 128}

a = CN(CC(=O)O)NC(=O)CC(N)[C@H]1CC[C@@H](N)C1 (stereo partly specified)
b = CN(CC(=O)O)NC(=O)C[C@H](N)CC1CC1N (stereo partly specified)
c = CN(CC(=O)O)NC(=O)C[C@H](N)CCCN
d = CN(CC(=O)O)NC(=O)CC(N)C1CCCC(N)C1 (stereo unspecified)
## Task Returns the items ordered by MIC, from maximum to minimum. Quick reminder: the answer is the labels in the order asked.
## Result d, a, b, c

---

Tested on: Klebsiella pneumoniae
Assay: Minimum inhibitory concentration (MIC) against Klebsiella pneumoniae ATCC 13882
Type: functional
Settings: Klebsiella pneumoniae, ATCC 13882; read-out: MIC
MEASUREMENT_TYPE: MIC (mg/L)

{"COMPOUND": "CN(CC(=O)O)NC(=O)CC(N)[C@H]1CC[C@@H](N)C1 (stereo partly specified)", "UNITS_OF_MEASURE": "mg/L", "MIC": 64}
{"COMPOUND": "CN(CC(=O)O)NC(=O)C[C@H](N)CC1CC1N (stereo partly specified)", "UNITS_OF_MEASURE": "mg/L", "MIC": 32}

A = CN(CC(=O)O)NC(=O)CC(N)C1CCC(N)CC1 (stereo unspecified)
B = CN(CC(=O)O)NC(=O)C[C@H](N)CCCN
C = CN(CC(=O)O)NC(=O)CC(N)C1CCCC(N)C1 (stereo unspecified)
D = CN(CC(=O)O)NC(=O)C[C@H](N)C1CC1N (stereo in doubt; 35e2)
## Task Put these in order: smallest MIC first, largest last. Quick reminder: the answer is the labels in the order asked.
## Result B, A, C, D
(B: 8 mg/L, A: 32 mg/L, C: 64 mg/L, D: 128 mg/L)

---

Test system: Staphylococcus aureus
Test: Minimum inhibitory concentration (MIC) against Staphylococcus aureus ATCC 25293
Type: functional
Conditions: Staphylococcus aureus, ATCC 25293; read-out: MIC
Measured MIC, listed per entry for reference.

# example entries with known answers
{"COMPOUND": "CN(CC(=O)O)NC(=O)CC(N)[C@H]1CC[C@@H](N)C1 (stereo partly drawn)", "MIC": "128 µg/mL"}
{"COMPOUND": "CN(CC(=O)O)NC(=O)C[C@H](N)/C=C(\\F)CN", "MIC": "> 256 µg/mL"}

# context switch: different compound, same MIC
## Task What value of MIC has been reported for the following compound? `CN(CC(=O)O)NC(=O)C[C@H](N)/C=C(/F)CN`
## Result > 256 µg/mL

---

Tested on: Escherichia coli
Assay: Minimum inhibitory concentration (MIC) against Escherichia coli MG1655 tolC
Format: functional
Conditions: Escherichia coli, MG1655; read-out: MIC
MEASUREMENT_TYPE: MIC

# example entries with known answers
{"COMPOUND": "CN(CC(=O)O)NC(=O)C[C@H](N)C1CC1CN (stereo partly specified)", "MIC": "> 128 µg/mL"}
{"COMPOUND": "CN(CC(=O)O)NC(=O)C[C@H](N)/C=C/CN", "MIC": "> 256 µg/mL"}
{"COMPOUND": "CN(CC(=O)O)NC(=O)C[C@H](N)CC1CC1N (stereo partly specified)", "MIC": "32 µg/mL"}
{"COMPOUND": "CN(CC(=O)O)NC(=O)C[C@H](N)C1CCCNC1 (stereo partly specified)", "MIC": "> 128 µg/mL"}
{"COMPOUND": "CN(CC(=O)O)NC(=O)C[C@H](N)/C=C(/F)CN", "MIC": "> 256 µg/mL"}

# context switch: different compound, same MIC
## Task What value of MIC has been reported for the following compound? `CN(CC(=O)O)NC(=O)C[C@H](N)/C=C(\F)CN`
## Result > 256 µg/mL

---

System: Staphylococcus aureus
Experiment: Minimum inhibitory concentration (MIC) against Staphylococcus aureus ATCC 25293
Type: functional
Details: Staphylococcus aureus, ATCC 25293; read-out: MIC
MEASUREMENT_TYPE: MIC

# example entries with known answers
{"COMPOUND": "CN(CC(=O)O)NC(=O)C[C@H](N)/C=C/CN", "TEST_RESULT": "> 256 µg/mL"}
{"COMPOUND": "CN(CC(=O)O)NC(=O)C[C@H](N)C1CCCNC1 (stereo partly drawn)", "TEST_RESULT": "> 128 µg/mL"}

# context switch: different compound, same MIC
## Task What value of MIC has been reported for the following compound? CN(CC(=O)O)NC(=O)C[C@H](N)C1CC1CN (stereo partly drawn)
## Result > 128 µg/mL
